System: E6SM
measurementProtocol: Minimum inhibitory concentration required to reduce virus induced cytopathicity by 50% was determined against TK- HSV-1 virus in E6SM cells
Format: functional
runConditions: Homo sapiens
observable: MIC

Would you please look over these solved cases?
## Task # get_value(readout= MIC, system= E6SM) for NC(CCS)C(=O)Nc1ncnc2c1ncn2C1O[C@H](CO)[C@@H](O)[C@H]1O (stereo partly drawn)
## Result > 400 µg/mL

## Task Next record, please: Nc1nc(O)c2ncn(C3C[C@H](O)[C@H](O)[C@@H]3O)c2n1 (stereo partly drawn)
## Result > 300 µg/mL

Next:
## Task # get_value(readout= MIC, system= E6SM) for Nc1nc(N)c2ncn(C3C[C@H](O)[C@H](O)[C@@H]3O)c2n1 (stereo partly drawn)
## Result > 200 µg/mL
